Assign protein stability index to each entry below.
B1: ANKRD9 (parent)
chain: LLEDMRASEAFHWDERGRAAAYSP

- Variants of: B1
- testDetails: protein stability index of a GFP-peptide fusion (GPS, HEK-293T) (PSI 1-6); higher = more stable;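 also: lentivirally expressed fusions sorted by FACS into six bins by GFP to DsRed ratio, PSI derived from sequencing read proportions per bin multiplied by bin number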
- conditionsUsed: c terminus: a fixed tail appended
// print number alone

Given E15Q , state its recorded protein stability index.
1.94

Quick one: Y22M
1.64

Please answer likewise for W13Y
1.39

And M5W ?
3.64

Can you check D4M next?
1.44

Further, for A19R ?
1.84

Please do the same for S23T as well.
2.08

Subsequent entry: M5K
3.97

Now consider E15V and answer again.
1.52

// repeat for L1K and report
3.4

Please give the result for D4Y too.
1.9

Now try D14Q .
1.58

// next record R6S
2.9

Same question, S8V this time
2.82

Repeat with M5H
3.39

What about E15T ?
1.91

Field entry: E3N
1.32

Now this one: A21E
2.53

Param item: E9P
2.8

What do you have for E3F ?
2.08

Could you do the same for S23H , please?
1.98

One more variant: D4F
2

Consider next the variant P24Q in the same way.
1.58

Request: E3Q
2.38

For E9H then?
3.31

Cool, now E3P
4.09

Can you check R18E next?
1.96

And R18N ?
2.14

Same question, R16N this time
1.93

Another variant to look at: D4A
2.36

Cool, now R6P
3.27

Subsequent entry: H12T
2.21

Request: A21T
1.43

Can you check M5F next?
3.94

How about this variant: S23N
1.16

What would you report for D4L ?
1.64

Query A21D next
2.06

Continue with L2A
3.15

Please answer likewise for S8A
3.3

Do the same for E15K please
1.8

Follow-up entry: D14W
2.41

How about this variant: A20S
1.62

Follow-up item: R18S
1.88

Another variant: A7G
3.01

Here is the next variant: E9V
2.19

Can you check F11S next?
2.91

// same read-out, input: R18P
1.56

Then this variant: F11A
2.71

Next variant up: D14P
1.6

Same lookup for F11K , please.
3.72

Also check R16F
1.86

Likewise for R18D ?
1.91

Subsequent entry: H12C
3.35

Field entry: A21R
2.23

Next variant up: A7D
2.51

What would you report for L1Y ?
3.54

# iterate: L1D
4.18

Try the variant R16L
2.41

Follow-up item: Y22H
1.76

What do you have for R6T ?
2.5

Let us now turn to D4G
2.52

Please answer likewise for E15I
2.83

And for R16A ?
2.24

Can you check D14H next?
2.13

Now this one: R16K
1.32

Let us now turn to R6M
2.17

# iterate: D14K
1.41

And what about the variant A7K ?
1.52

Subsequent entry: A20I
1.97

// next record A20F
1.81

Please answer likewise for S8W
3.13

Check E9T too.
2.96

Same question, A21Q this time
2.29

What would you report for A21M ?
1.96

Param item: W13E
2.06

Follow-up entry: A7R
1.76

Do the same for D4W please
1.52

Moving on to the next variant: Y22L
1.81

Same question, E15Y this time
1.81

Lookup A21K
1.95

Now try E3T .
2.31

What about L2E ?
4.52

Subsequent entry: R18G
2.12

What do we get for H12A ?
3.33

Same read-out for S8T ?
1.82

Same thing, different variant: D4I
2

Next variant up: P24A
2.1

Here is the next variant: Y22G
1.63

Quick one: E15S
1.64

F11G ?
3.23

Next variant up: P24T
2.34
